Study target: FAK (Homo sapiens, UniProt Q05397)
Sequence (Q05397 whole entry, species assumed): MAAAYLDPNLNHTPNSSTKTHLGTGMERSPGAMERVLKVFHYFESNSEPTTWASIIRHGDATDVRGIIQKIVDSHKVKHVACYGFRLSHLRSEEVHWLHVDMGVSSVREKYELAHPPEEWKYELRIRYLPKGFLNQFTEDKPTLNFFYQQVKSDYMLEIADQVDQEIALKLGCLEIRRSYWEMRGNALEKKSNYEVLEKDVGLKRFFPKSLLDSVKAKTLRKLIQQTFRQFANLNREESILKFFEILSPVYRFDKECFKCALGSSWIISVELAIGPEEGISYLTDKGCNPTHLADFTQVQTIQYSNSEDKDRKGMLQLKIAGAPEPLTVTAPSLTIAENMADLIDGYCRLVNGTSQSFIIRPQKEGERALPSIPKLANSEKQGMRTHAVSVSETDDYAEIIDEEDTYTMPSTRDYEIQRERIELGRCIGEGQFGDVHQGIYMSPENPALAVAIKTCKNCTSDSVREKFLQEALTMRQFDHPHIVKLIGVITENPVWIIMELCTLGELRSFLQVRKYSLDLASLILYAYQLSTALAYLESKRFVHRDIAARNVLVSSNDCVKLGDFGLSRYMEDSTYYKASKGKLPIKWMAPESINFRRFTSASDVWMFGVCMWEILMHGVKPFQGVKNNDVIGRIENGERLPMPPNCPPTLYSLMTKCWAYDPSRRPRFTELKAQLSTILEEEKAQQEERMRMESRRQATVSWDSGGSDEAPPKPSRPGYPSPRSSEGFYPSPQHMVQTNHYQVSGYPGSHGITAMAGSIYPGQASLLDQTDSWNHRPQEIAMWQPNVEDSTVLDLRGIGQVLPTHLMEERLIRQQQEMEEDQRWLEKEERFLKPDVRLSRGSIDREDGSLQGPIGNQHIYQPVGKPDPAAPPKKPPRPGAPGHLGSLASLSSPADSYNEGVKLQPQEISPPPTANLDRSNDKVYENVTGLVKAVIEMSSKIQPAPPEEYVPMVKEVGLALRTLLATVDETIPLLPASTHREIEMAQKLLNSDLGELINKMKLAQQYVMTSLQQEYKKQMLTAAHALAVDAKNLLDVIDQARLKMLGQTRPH
Readout name: pIC50
Lab note — pIC50 values are minus log10 of concentrations in M.

Worked set:
{"columns": ["Compound", "pIC50"],
 "data": [
  ["Cl.N[C@H]1CC[C@H](Nc2nc(-n3cnc4cc(Cl)c(Cl)cc43)c3nc[nH]c3n2)CC1 [Example 8, hydrochloride]", 5.70],
  ["Cl.Cl.N[C@H]1CC[C@H](Nc2nc(N3CCc4cc([N+](=O)[O-])ccc43)c3nc[nH]c3n2)CC1 [Example 30, dihydrochloride]", 6.00]
]}

Please look at the following compound next.
Query string: Entry N[C@H]1CC[C@H](Nc2nc(-n3cnc4cc(OCc5ccccc5)ccc43)c3nc[nH]c3n2)CC1 : reported pIC50 = ?
Result string: 5.80

This collection of values is drawn from patent US7476670B2.
